Source: ChEMBL document CHEMBL1131273

protocol-text: Maximum plasma concentration of compound present in rats at the dose of 37 mg/kg in 15 min
Type: ADME, organism-based
Set-up: dose 37 mg/kg
assay-context: rat
quantity-kind: Cmax (nM)
// return numeric value only (unit: nM, not printed)

Value lookup for Cmax; key = `Cc1c(O)cccc1C(=O)N[C@@H](Cc1ccccc1)[C@@H](O)C[C@H](Cc1ccccc1)NC(=O)c1ccccc1NC(=O)OCc1ccccn1` 30

* * *

tgt: Human immunodeficiency virus type 1 protease (Human immunodeficiency virus 1)
Ki strictly under 0.6 nM means Yes; at 0.6 nM or over means No.

For orientation, consider the following solved cases.
[
  {
    "item-smiles": "Nc1ccc(C(=O)N[C@@H](Cc2ccccc2)[C@@H](O)C[C@H](Cc2ccccc2)NC(=O)c2ccccc2NC(=O)OCc2ccccn2)cc1",
    "tgt": "Human immunodeficiency virus type 1 protease (Human immunodeficiency virus 1)",
    "assigned-category": "No"
  },
  {
    "item-smiles": "O=C(Nc1ccccc1C(=O)N[C@@H](Cc1ccccc1)C[C@H](O)[C@H](Cc1ccccc1)NC(=O)c1ccno1)OCc1ccccn1",
    "tgt": "Human immunodeficiency virus type 1 protease (Human immunodeficiency virus 1)",
    "assigned-category": "No"
  },
  {
    "item-smiles": "CC(C)(C)OC(=O)N[C@@H](Cc1ccccc1)C[C@H](O)[C@H](Cc1ccccc1)NC(=O)c1ccccc1NC(=O)OCc1ccccn1",
    "tgt": "Human immunodeficiency virus type 1 protease (Human immunodeficiency virus 1)",
    "assigned-category": "No"
  }
]

Problem: For the molecule `O=C(Nc1ccccc1C(=O)N[C@@H](Cc1ccccc1)C[C@H](O)[C@H](Cc1ccccc1)NC(=O)OCc1cscn1)OCc1ccccn1` , is Ki under 0.6 nM? No

* * *

tgt: Human immunodeficiency virus type 1 protease (Human immunodeficiency virus 1, UniProt Q72874)
Ki strictly under 0.5 nM means true (1); at 0.5 nM or over means false (0).

For orientation, consider the following solved cases.
[
  {
    "item-smiles": "CC(C)(C)OC(=O)N[C@@H](Cc1ccccc1)[C@@H](O)C[C@H](Cc1ccccc1)NC(=O)c1ccccc1NC(=O)OCc1ccccn1",
    "assigned-category": "true (1)"
  },
  {
    "item-smiles": "O=C(Nc1ccccc1C(=O)N[C@@H](Cc1ccccc1)[C@@H](O)C[C@H](Cc1ccccc1)NC(=O)c1cccc(O)c1)OCc1ccccn1",
    "assigned-category": "false (0)"
  },
  {
    "item-smiles": "O=C(Nc1ccccc1C(=O)N[C@@H](Cc1ccccc1)C[C@H](O)[C@H](Cc1ccccc1)NC(=O)c1cccc(O)c1)OCc1ccccn1",
    "assigned-category": "false (0)"
  },
  {
    "item-smiles": "O=C(Nc1ccccc1C(=O)N[C@@H](Cc1ccccc1)C[C@H](O)[C@H](Cc1ccccc1)NC(=O)c1cscn1)OCc1ccccn1",
    "assigned-category": "false (0)"
  },
  {
    "item-smiles": "Cc1c(O)cccc1C(=O)N[C@@H](Cc1ccccc1)[C@@H](O)C[C@H](Cc1ccccc1)NC(=O)c1ccccc1NC(=O)OCc1ccccn1",
    "assigned-category": "true (1)"
  },
  {
    "item-smiles": "Nc1ccc(C(=O)N[C@@H](Cc2ccccc2)[C@H](O)[C@H](O)[C@H](Cc2ccccc2)NC(=O)c2ccccc2NC(=O)OCc2ccccn2)cc1",
    "assigned-category": "false (0)"
  },
  {
    "item-smiles": "O=C(Nc1ccccc1C(=O)N[C@@H](Cc1ccccc1)C[C@H](O)[C@H](Cc1ccccc1)NC(=O)OCc1cccnc1)OCc1ccccn1",
    "assigned-category": "true (1)"
  },
  {
    "item-smiles": "CCOC(=O)N[C@@H](C(=O)N[C@@H](Cc1ccccc1)[C@@H](O)C[C@H](Cc1ccccc1)NC(=O)c1ccccc1NC(=O)OCc1ccccn1)C(C)C",
    "assigned-category": "true (1)"
  },
  {
    "item-smiles": "CC(C)(C)OC(=O)N[C@@H](Cc1ccccc1)[C@H](O)[C@H](O)[C@H](Cc1ccccc1)NC(=O)c1ccccc1NC(=O)OCc1ccccn1",
    "assigned-category": "true (1)"
  },
  {
    "item-smiles": "O=C(Nc1ccccc1C(=O)N[C@@H](Cc1ccccc1)[C@H](O)[C@H](O)[C@H](Cc1ccccc1)NC(=O)c1ccno1)OCc1ccccn1",
    "assigned-category": "true (1)"
  }
]

Problem: For the molecule `O=C(Nc1ccccc1C(=O)N[C@@H](Cc1ccccc1)C[C@H](O)[C@H](Cc1ccccc1)NC(=O)O[C@@H]1CCOC1)OCc1ccccn1` , is Ki under 0.5 nM? true (1)

Problem: For the molecule `CCOC(=O)N[C@H](C(=O)N[C@@H](Cc1ccccc1)[C@@H](O)C[C@H](Cc1ccccc1)NC(=O)c1ccccc1NC(=O)OCc1ccccn1)[C@@H](C)CC` , is Ki under 0.5 nM? true (1)

Problem: For the molecule `O=C(Nc1ccccc1C(=O)N[C@@H](Cc1ccccc1)C[C@H](O)[C@H](Cc1ccccc1)NC(=O)OCc1cncs1)OCc1ccccn1` , is Ki under 0.5 nM? true (1)
